Assay: gradient 5% acetonitrile 3 min, to 50% in 2 min, to 85% in 15 min, held 3 min, 100 µL/min
Details: column: Zorbax Extend-C18 2.1 x 50 mm; eluents: water / acetonitrile, 0.1% formic acid
Measure: RP-LC retention time (s)
Give bare numbers, in s.

Quick batch: RP-LC retention time for everything below.
1. CCOC(=O)c1noc2ncnc(NCc3ccccc3Cl)c12
2. CC(=O)Nc1ccc(CC(=O)N2CCCC(c3nc(-c4ccc(NC(C)=O)cc4)no3)C2)cc1 (configuration not stated)
3. COc1ccc(S(=O)(=O)N2CCc3nc(-c4ccc(F)cc4)ncc3C2)cc1Cl

Reply |
1. 965
2. 675
3. 1140

Batch request: RP-LC retention time for each of the following compounds.
1. C=CCN1C(=O)COc2ccc(-c3nc(NC(=O)c4cccc(C)c4)sc3C)cc21
2. O=C(NCc1csc(-c2ccccc2)n1)[C@H]1CCCN1C(=O)COc1ccc(Cl)cc1
3. COCCN1C(=O)[C@H]2CN(Cc3ccc(OC)c(Br)c3)C[C@H]2C1=O
4. CCCCN1C(=O)C(CC(=O)NC(C)C)Sc2ncccc21 (configuration not stated)

Reply |
1: 1110; 2: 861; 3: 616; 4: 742

* * *

Assay: gradient 5% acetonitrile 3 min, to 50% in 2 min, to 85% in 15 min, held 3 min, 100 µL/min
Conditions: column: Zorbax Extend-C18 2.1 x 50 mm; eluents: water / acetonitrile, 0.1% formic acid
Measure: RP-LC retention time (s)
Answers are plain numbers, in s.

[
  {
    "Compound": "COc1ccc(NC(=O)c2cnc(-c3ccc(F)cc3)nc2-c2ccncc2)cc1",
    "U": "s",
    "RP-LC retention time": 856
  },
  {
    "Compound": "CCS(=O)(=O)N1CC(=O)N(c2cc(C)ccc2C)C(C)(C(=O)NC2CCCCCC2)C1 (stereo unspecified)",
    "U": "s",
    "RP-LC retention time": 951
  },
  {
    "Compound": "CCOC(=O)C1CCCN(c2c(NCC3COc4ccccc4O3)c(=O)c2=O)C1 (stereo unspecified)",
    "U": "s",
    "RP-LC retention time": 796
  },
  {
    "Compound": "CCc1ccccc1S(=O)(=O)N1CCC(C(=O)NCc2csc(-c3ccccc3)n2)CC1",
    "U": "s",
    "RP-LC retention time": 999
  },
  {
    "Compound": "Cc1ccccc1CNC(=O)c1cn(-c2ccc(-c3nc(C(C)(C)C)no3)cn2)cn1",
    "U": "s",
    "RP-LC retention time": 1100
  }
]

We now examine a further compound.
Ask | I would be grateful if you could share the reported RP-LC retention time for O=C(NCc1cccnc1-c1ccc(F)cc1)c1cccc(Br)c1 .
Reply | 734

* * *

Assay: gradient 5% acetonitrile 3 min, to 50% in 2 min, to 85% in 15 min, held 3 min, 100 µL/min
Settings: column: Zorbax Extend-C18 2.1 x 50 mm; eluents: water / acetonitrile, 0.1% formic acid
Measure: RP-LC retention time (s)
Give bare numbers, in s.

Report RP-LC retention time for every entry below.
1. CCc1nc2cc(N3CCC(C(=O)N4CCC5(CC4)OCCO5)CC3)cnc2nc1CC
2. CCOc1cc2c(cc1OCC)C1C(C(=O)N3CCN(CC)CC3)c3ccccc3C(=O)N1CC2 (stereo not given)
3. COC(=O)c1ccc(NC(=O)CN2CC(c3nc(-c4cnccn4)no3)C2)cc1
4. Cc1cc(C)n(Cc2ccc(C(=O)N3CCN(Cc4noc5ccccc45)CC3)o2)n1
5. CSc1ccc(CCNC(=O)C2CCCN(C(=O)Cc3cccc4ccccc34)C2)cc1 (stereo not given)

Reply |
1. 723
2. 638
3. 561
4. 672
5. 971

* * *

Experiment: gradient 5% acetonitrile 3 min, to 50% in 2 min, to 85% in 15 min, held 3 min, 100 µL/min
Conditions: column: Zorbax Extend-C18 2.1 x 50 mm; eluents: water / acetonitrile, 0.1% formic acid
Measure: RP-LC retention time (s)
Numbers only, in s.

Below are worked cases with known answers.
[
  {
    "Compound": "CSc1ccccc1NC(=O)c1cnc2ccc(C)cn2c1=O",
    "RP-LC retention time [s]": 806
  },
  {
    "Compound": "COc1ccc(NC(=O)CN2CCc3c(c(=O)c4cc(C)ccc4n3C)C2)cc1",
    "RP-LC retention time [s]": 599
  },
  {
    "Compound": "O=C(NCCn1c(=O)n(Cc2ccccc2)c2cccnc21)c1ccoc1",
    "RP-LC retention time [s]": 725
  },
  {
    "Compound": "O=c1n(Cc2ccc3c(c2)OCO3)nc2c(S(=O)(=O)N3CCCC3)cccn12",
    "RP-LC retention time [s]": 783
  },
  {
    "Compound": "COc1cc(C(=O)Nc2ccc(-c3cn4cccnc4n3)cc2)cc(OC)c1OC",
    "RP-LC retention time [s]": 634
  }
]

Record RP-LC retention time for all entries; do not skip any.
1. Cc1ccc(CNC(=O)c2cc3sccc3n2Cc2ccc(Cl)cc2)cc1
2. CCOC(=O)c1cnc2c(-c3ccc(Cl)cc3)c(COC)nn2c1N
3. Cc1c(C(=O)Nc2ccc(N3CCC(N4CCOCC4)CC3)c(C#N)c2)cnn1-c1ccc(Cl)cc1
4. O=C(NC1CC1)c1nc(-c2cccs2)cs1
5. CC(C)Cn1cc(NC(=O)N2CCN(c3ccccn3)CC2)c2ccccc2c1=O
6. O=C(NCc1ccccc1F)c1cc(=O)n2c(nc3ccccc32)s1

Reply |
1. 1200
2. 1150
3. 800
4. 835
5. 573
6. 876

Batch request: RP-LC retention time per item, same order as input.
1. O=C(Nc1ccc2scnc2c1)c1ccc(Cl)cc1Cl
2. O=C(Nc1cccc(-c2ccc(N3CCOCC3)nn2)c1)Nc1cccc(C(F)(F)F)c1
3. Cc1nc(C)c(C(=O)N2CCCCCCNC(=O)[C@@H]3CCCC[C@@H]32)s1

Reply |
[801, 782, 727]

Dear reader, for each entry below, please note its RP-LC retention time.
1. COc1ccc(NC(=O)Cn2nc(N3CCCC3)c3ccccc3c2=O)cc1OC
2. O=C(CN1C(=O)C2CCCCN2c2ccc(C(=O)N3CCCC3)cc21)NCCc1ccco1 (stereo not drawn)
3. CC(C)NC(=O)C1CCN(c2cnn(Cc3ccccc3)c(=O)c2)CC1

Reply |
[796, 664, 689]

* * *

Provide the recorded RP-LC retention time for the entries that follow.
Experiment: gradient 5% acetonitrile 3 min, to 50% in 2 min, to 85% in 15 min, held 3 min, 100 µL/min
Settings: column: Zorbax Extend-C18 2.1 x 50 mm; eluents: water / acetonitrile, 0.1% formic acid
Give bare numbers, in s.

// below: answered compounds
[
  {
    "Input smiles": "CCOc1ccc2ncc(C#N)c(N3CCC(C(=O)Nc4ccccc4OCC)CC3)c2c1",
    "U": "s",
    "Measured value": 984
  },
  {
    "Input smiles": "Cn1cc(-c2nc(C(=O)Nc3cc(F)ccc3Cl)cs2)c2cccnc21",
    "U": "s",
    "Measured value": 1260
  },
  {
    "Input smiles": "CCCOc1ccc(-c2csc(NC(=O)CN3C(=O)CCC3=O)n2)cc1",
    "U": "s",
    "Measured value": 816
  }
]

// moving on: another record for RP-LC retention time
Ask | Returns the measured RP-LC retention time for the input compound. Input: COC(=O)C1=CN(c2ccc(OC)c(Cl)c2)c2ccc(F)cc2S1(=O)=O
Reply | 886

* * *

Assay: gradient 5% acetonitrile 3 min, to 50% in 2 min, to 85% in 15 min, held 3 min, 100 µL/min
Details: column: Zorbax Extend-C18 2.1 x 50 mm; eluents: water / acetonitrile, 0.1% formic acid
Assign RP-LC retention time to each entry below.
Answers are plain numbers, in s.

Example results:
[
  {
    "Compound": "O=C(c1cccc2[nH]ccc12)N1CCC2(CC1)N=C(c1ccc(Cl)cc1)NO2",
    "RP-LC retention time / s": 804
  },
  {
    "Compound": "COC(=O)c1c(NCc2cc(OC)ccc2OC)c2cccc(Cl)c2[nH]c1=O",
    "RP-LC retention time / s": 808
  },
  {
    "Compound": "CC1=C(c2ccc(Cl)cc2)S(=O)(=O)N=C1N1CCC(NC(=O)C2CCCO2)CC1 (stereo unspecified)",
    "RP-LC retention time / s": 779
  },
  {
    "Compound": "CC1CCN(C(=O)C2=NN(C)c3ccccc3S2(=O)=O)CC1",
    "RP-LC retention time / s": 799
  },
  {
    "Compound": "Cc1ccccc1OCC(=O)N1CCN(c2nc(CN3CCCCC3)cs2)CC1",
    "RP-LC retention time / s": 895
  }
]

For every item below, please supply its RP-LC retention time.
1. CCCC(NC(=O)C1CCCN(c2ccc(=O)n(-c3ccc(C)c(Cl)c3)n2)C1)c1cccs1 (stereo unspecified)
2. Cc1ccc(-c2ccc(-n3nc(C)c(S(=O)(=O)NCc4ccc5c(c4)OCO5)c3C)nn2)cc1
3. CCC(C)NC(=O)c1cc2n(n1)CCCN(Cc1cccc(C)c1)C2=O (stereo unspecified)
4. CCCCN(C)C(=O)c1cn2cc(Cl)ccc2n1
5. CCOC(=O)c1c(C)n(C)c2ccc(OC(C)=O)cc12
6. CCC1CN2C=NC(N3CCN(C(=O)Nc4ccc(SC)cc4)CC3)=CC2=N1 (stereo unspecified)
7. CCOCCCNC(=O)C1CCN(c2cc(Oc3ccc(CC)cc3)ncn2)CC1
8. COCCc1noc(-c2cnc3nc(C)ccc3c2Nc2cccc(F)c2)n1

Reply |
1: 1040; 2: 1020; 3: 851; 4: 736; 5: 889; 6: 655; 7: 646; 8: 729
